system name: T1, recombinant, soluble human ASGR-1 (human, UniProt P07306 62-291)
T1 construct: biotinylated in the binning assay; also called soluble huASGR-1; Soluble ASGR-1 (Amgen)
T1 sequence: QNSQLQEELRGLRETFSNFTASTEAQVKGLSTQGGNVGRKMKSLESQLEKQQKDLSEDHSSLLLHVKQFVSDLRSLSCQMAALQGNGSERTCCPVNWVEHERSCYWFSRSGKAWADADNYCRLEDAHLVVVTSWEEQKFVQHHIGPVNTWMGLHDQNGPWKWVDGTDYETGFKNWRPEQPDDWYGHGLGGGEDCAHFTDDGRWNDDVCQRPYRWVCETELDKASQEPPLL
test summary: Octet BLI dissociation, pH 7.4 minus calcium
recorded endpoint: % Change Compared to pH 7.4 + Calcium (%)
Numbers only; they are read as %.

>>> result_value("192C8 (antibody, V domains shown, hybridoma mAb) VH: QVQLVESGGGVVQPGRSLRLSCAASGFTFSSYGMHWVRQAPGKGLEWVAVIWYDGSNEHYADSVKGRFMISRDNSKNTLYLQMNSLRAEDTAVYYCARDRGVGYYGMDVWGQGTTVTVSS VL: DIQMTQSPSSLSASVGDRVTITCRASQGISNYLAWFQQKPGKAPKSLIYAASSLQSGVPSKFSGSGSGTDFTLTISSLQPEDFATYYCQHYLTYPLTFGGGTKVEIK")
-9

Below: the item to evaluate.
Consider 47C1 (antibody, V domains shown, hybridoma mAb) VH: QVQLVESGGGVVQPGRSLRLSCAASGFTFSDYGMHWVRQTPGKGLEWVAVIWYDGSNKYYADSVKGRFTISRDNSKNTLFLQMNSLRDEDTAVYYCARRYSRSWVGGMDVWGQGTTVTVSS VL: DIVMTQTPLSLSVTPGQPASISCTSSQSLLHSEGKTYLYWYLQKPGQPPQLLIYEVSNRFSGVPDRFSGSGSGTDFTLKISRVEAEDVGVFYCMQSIQLPWTFGQGTKVEIK . Its measured % Change Compared to pH 7.4 + Calcium is 13
